Measured thermal shift delta Tm of individual entries
System: LOC_OS04G57630-cb004;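 further: purified Escherichia coli-expressed rice kinase domain construct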
Assay: thermal shift delta Tm vs DMSO control; higher = stronger stabilization (binding)
Settings: 12.5 µM; protein concentration 2 µM
Structures can show the parent of a compound that is named as a salt.
The answer is to be given in °C; state only the numeric part.

Look over these answered cases.
Lab note: need thermal shift delta Tm with LOC_OS04G57630-cb004 for entry "CCNC(=O)C#Cc1ccc2c(C(=Nc3ccc(CN(C)C)cc3)c3ccccc3)c(O)[nH]c2c1" , please look it up.
2.92

Lab note: need thermal shift delta Tm with LOC_OS04G57630-cb004 for entry Cc1ccc(NC(=O)c2ccc(CN3CCN(C)CC3)cc2)cc1Nc1nccc(-c2cccnc2)n1 [Imatinib Mesylate (STI571)] , please look it up.
0.35

Lab note: need thermal shift delta Tm with LOC_OS04G57630-cb004 for entry "Nc1nccc(Oc2ccc3c(C(=O)Nc4cccc(C(F)(F)F)c4)cccc3c2)n1" , please look it up.
0.43

Lab note: need thermal shift delta Tm with LOC_OS04G57630-cb004 for entry "CN1CCN(c2ccc(Nc3cc(-c4cccc(-n5ccc6cc(C7CC7)cc(F)c6c5=O)c4CO)cn(C)c3=O)nc2)CC1" , please look it up.
0.45

Lab note: need thermal shift delta Tm with LOC_OS04G57630-cb004 for entry "Cn1c(=O)c(Oc2ccc(F)cc2F)cc2cnc(NC(CCO)CCO)nc21" , please look it up.
-0.25

Continuing:
Lab note: need thermal shift delta Tm with LOC_OS04G57630-cb004 for entry "CC[C@@H]1C(=O)N(C)c2cnc(Nc3ccc(C(=O)NC4CCN(C)CC4)cc3OC)nc2N1C1CCCC1" , please look it up.
-0.45

Lab note: need thermal shift delta Tm with LOC_OS04G57630-cb004 for entry "CCc1cnn2c(NCc3ccc[n+]([O-])c3)cc(N3CCCC[C@H]3CCO)nc12" , please look it up.
-0.16

Lab note: need thermal shift delta Tm with LOC_OS04G57630-cb004 for entry "CN(C)Cc1cccc(N=C(c2ccccc2)c2c(O)[nH]c3cc(C(=O)N(C)C)ccc23)c1" , please look it up.
0.46
